test: rescue of PC12 cells from polyQ htt toxicity – LDH release (AID 1610); conditions: PC12 mutant huntingtin toxicity, final LDH at 4 uM, stronger effect = lower value
Records with an inconclusive call do not appear.
Threshold check on normalised LDH release: strictly below 0.9 is Criterion met; on or above 0.9 is Criterion not met.

> print(dat)
                                   molecule     assigned.label
1  Oc1c(Cl)cc(Cl)c(Cl)c1Cc1c(O)c(Cl)cc(Cl)c1Cl  Criterion not met
2  CN(C)c1ccc(C(=C2C=CC(=[N+](C)C)C=C2)c2ccc(N(C)C)cc2)cc1      Criterion met
3                      O=NN(CCCl)C(=O)NCCCl      Criterion met
4  Cc1ccc(C(=O)C(C)CN2CCCCC2)cc1 (centres undefined)      Criterion met
5  Nc1c(Br)cc(Br)cc1CNC1CCC(O)CC1 (centres undefined)      Criterion met
6  CC(NCCC(c1ccccc1)c1ccccc1)c1ccccc1 (centres undefined)  Criterion not met
7                      C[N+](C)(C)CCOC(N)=O      Criterion met
8         NC(=O)N/N=C/c1ccc([N+](=O)[O-])o1  Criterion not met

* * *

assay: viability loss in pontine glioma line – cell-based, SU-DIPG-XIII, MIPE5.0, CellTiter-Glo, qHTS, dose response (AID 1347064); conditions: CellTiter-Glo ATP luminescence;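 as to AC50: cells exposed to compound for 48 hours before the viability read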
Records with an inconclusive call do not appear. Activity calls are given as the source filed them. Cut-off not given; nearly all actives show AC50 up to about 23 µM.
Labels: 1 = active, -1 = inactive

> print(dat)
                                    compound  assigned.label
 1  CC(=O)N(O)CCCCCNC(=O)CCC(=O)N(O)CCCCCNC(=O)CCC(=O)N(O)CCCCCN               1
 2                 CNNCc1ccc(C(=O)NC(C)C)cc1              -1
 3  COc1ccnc(CS(=O)c2nc3ccc(OC(F)F)cc3[nH]2)c1OC (stereo not given)              -1
 4  COc1ccccc1OCC(O)CN1CCN(CC(=O)Nc2c(C)cccc2C)CC1 (stereo not given)              -1
 5             COc1ccc2[nH]cc(CCNC(C)=O)c2c1              -1
 6  CN1C(C(=O)Nc2ccccn2)=C(O)c2sccc2S1(=O)=O              -1
 7  CS(=O)(=O)Nc1ccc([N+](=O)[O-])cc1Oc1ccccc1              -1
 8  Clc1ccc(C(c2ccccc2Cl)C(Cl)Cl)cc1 (stereo not given)               1
 9  CCOC(=O)[C@H](CCc1ccccc1)N[C@@H](C)C(=O)N1CCC[C@H]1C(=O)O              -1
10  COc1cccc2c1C(=O)c1c(O)c3c(c(O)c1C2=O)C[C@@](O)(C(=O)CO)C[C@@H]3O[C@H]1C[C@H](N)[C@H](O)[C@H](C)O1               1

* * *

test system: Hepatitis C virus NS3 helicase; test: blockers of NS3h binding to DNA – biochemical, fluorescence polarization, NIH Clinical Collection, primary screen (AID 743270); conditions: NS3 helicase binding to Cy5-dT15 DNA, stronger effect = higher value, concentration not given here
The source made the active and inactive calls. No rule for the calls is given here.
Listed here: items and their measured inhibition.
metric_name: inhibition

> print(dat)
                                    molecule       assay.result
 1  CC(C)(O)c1ccccc1CC[C@@H](SCC1(CC(=O)O)CC1)c1cccc(/C=C/c2ccc3ccc(Cl)cc3n2)c1   6.73% (inactive)
 2  CC(C)NCC(O)COc1ccc(COCCOC(C)C)cc1 (configuration not stated)   1.19% (inactive)
 3  C#C[C@]1(O)CC[C@H]2[C@@H]3CCc4cc(O)ccc4[C@H]3CC[C@@]21C   1.98% (inactive)
 4  Cc1c(O)cccc1C(=O)N[C@@H](CSc1ccccc1)[C@H](O)CN1C[C@H]2CCCC[C@H]2C[C@H]1C(=O)NC(C)(C)C  -4.36% (inactive)
 5                  NS(=O)(=O)Cc1noc2ccccc12  -6.82% (inactive)
 6                    Nc1c2c(nc3c1CCC3)CCCC2   2.77% (inactive)
 7         CCCN1CCCC[C@H]1C(=O)Nc1c(C)cccc1C  -5.46% (inactive)
 8      c1cnc(N2CCN(Cc3ccc4c(c3)OCO4)CC2)nc1  -5.94% (inactive)
 9  C[C@H]1COc2c(C3(N)CC3)c(F)cc3c(=O)c(C(=O)O)cn1c23   5.15% (inactive)
10          Nc1nc2c(ncn2COC(CO)CO)c(=O)[nH]1  -3.18% (inactive)
11                  Cn1nnc2c(C(N)=O)ncn2c1=O  -5.94% (inactive)
12  Cc1nc2n(c(=O)c1CCN1CCC(c3noc4cc(F)ccc34)CC1)CCCC2   3.56% (inactive)
13  O=C1CC2(CCCC2)CC(=O)N1CCNCC1COc2ccccc2O1 (configuration not stated)  -8.95% (inactive)
14  Oc1ccc(C2CNCCc3c2cc(O)c(O)c3Cl)cc1 (configuration not stated)  -1.98% (inactive)
15  CC(=O)O[C@H]1C[C@@H]2CC[C@@H]3[C@H](CC[C@@]4(C)[C@H]3C[C@H]([N+]3(C)CCCCC3)[C@@H]4OC(C)=O)[C@@]2(C)C[C@@H]1N1CCCCC1  -0.22% (inactive)
16  CC(C)(C)NC(=O)[C@@H]1CN(Cc2cccnc2)CCN1C[C@@H](O)C[C@@H](Cc1ccccc1)C(=O)N[C@H]1c2ccccc2C[C@H]1O  -1.19% (inactive)
17       Nc1ccn([C@H]2CC[C@@H](CO)O2)c(=O)n1   2.77% (inactive)
18                   NC1CCN(c2cccc(Cl)n2)CC1  -1.19% (inactive)
19  Oc1c(Cl)cc(Cl)c(Cl)c1Cc1c(O)c(Cl)cc(Cl)c1Cl   15.9% (inactive)
20  Cc1cccc(C)c1OCC(C)N (configuration not stated)  -4.09% (inactive)
21    O=c1[nH]cnc2c1ncn2[C@H]1CC[C@@H](CO)O1   1.19% (inactive)
22     CCCc1c(OCCCCc2nn[nH]n2)ccc(C(C)=O)c1O   5.15% (inactive)

Data provenance is PubChem BioAssay.
